system: Saccharomyces cerevisiae BY4741 SeMeCo community; experiment: z-score of prototroph abundance vs DMSO median; higher = larger share of this subpopulation than in DMSO controls; details: 10 µM; 24 h; SM minimal medium; subpopulation (auxotrophy): Prototroph
Structures can show the parent of a compound that is named as a salt.
Here, each record is paired with measured z-score of prototroph abundance data.

compound: O=C(N[C@H](CO)[C@H](O)c1ccc([N+](=O)[O-])cc1)C(Cl)Cl [Chloramphenicol]
z-score of prototroph abundance: -0.39
--
compound: Cc1ccc(O)c([C@H](CCN(C(C)C)C(C)C)c2ccccc2)c1 [Tolterodine tartrate]
z-score of prototroph abundance: -0.65
--
compound: Clc1ccc(COC(Cn2ccnc2)c2ccc(Cl)cc2Cl)cc1 (stereo not drawn) [Econazole nitrate]
z-score of prototroph abundance: -8.44
--
compound: NC(CO)(CO)CO [Trometamol]
z-score of prototroph abundance: -0.35
--
compound: CN[C@H]1C(=O)N[C@@H]2Cc3ccc(cc3)Oc3cc4cc(c3O[C@@H]3O[C@H](C(=O)O)[C@@H](O)[C@H](O)[C@H]3NC(=O)CCCCCCCCC(C)C)Oc3ccc(cc3Cl)[C@@H](O)[C@@H]3NC(=O)[C@H](NC(=O)[C@@H]4NC(=O)[C@@H](NC2=O)c2cc(cc(O)c2Cl)Oc2cc1ccc2O)c1ccc(O)c(c1)-c1c(O[C@H]2O[C@H](CO)[C@@H](O)[C@H](O)[C@@H]2O)cc(O)cc1[C@@H](C(=O)NCCCN(C)C)NC3=O [Dalbavancin]
z-score of prototroph abundance: -0.15

Please give measured z-score of prototroph abundance of the following entry: CCOC(=O)C1=C[C@]2(CC)CCCN3CCc4c(n1c1ccccc41)[C@@H]32 [Vinpocetine] -0.9

Please give measured z-score of prototroph abundance of the following entry: O=C1CCc2ccc(OCCCCN3CCN(c4cccc(Cl)c4Cl)CC3)cc2N1 [Aripiprazole] -0.84

State its z-score of prototroph abundance: CC[C@H](C)C(=O)O[C@H]1C[C@H](O)C=C2C=C[C@H](C)[C@H](CC[C@@H](O)C[C@@H](O)CC(=O)O)[C@H]21 [Pravastatin] -1.08

Specify measured z-score of prototroph abundance for C[C@@H](CN1CC(=O)NC(=O)C1)N1CC(=O)NC(=O)C1 [Dexrazoxane HCl (ICRF-187, ADR-529)] . 0.46

Using the record for NC(=O)N1c2ccccc2C=Cc2ccccc21 [Carbamazepine] , state its measured z-score of prototroph abundance. 0.13

Determine from records and report z-score of prototroph abundance for COc1cc2c(cc1OC)[C@@H]1Cc3ccc(OC)c(OC)c3CN1CC2 [Rotundine] -0.12

Output measured z-score of prototroph abundance for this item: COc1cc(NC(C)CCCN)c2ncccc2c1 (stereo not drawn) [Primaquine Diphosphate] 0.58

Data credit: the supplement of paper PMC8975748
